Tested on: Dd2
assay protocol: qHTS profiling for inhibitors of Plasmodium falciparum proliferation (AID 504749); also: nearly all actives have a fitted effect of over 60% in size
condition details: P. falciparum in erythrocytes, SYBR Green DNA, 72 h; series mostly up to 28.7 µM
Records with an inconclusive call do not appear. Active and inactive are the calls of the source. Calls follow the shape of the dose curve; as a rule, active = well fitted inhibition curve with a large enough effect; inconclusive = small, poorly fitted or top-dose-only effect; inactive = flat fitted curve, though single readings scatter.
Use one of these outcomes when replying: TRUE (active), FALSE (inactive)

Identify the outcome logged in this assay for the compound shown: NC1=NCC2c3ccccc3Cc3ccccc3N12 (centres undefined)
FALSE

Could you kindly confirm the outcome this assay logged for CCN(CC)CCNC(=O)c1ccc(NC(C)=O)cc1 ?
FALSE

Hi, do you know how C[C@]12CCC(=O)C=C1CC[C@@H]1[C@@H]2CC[C@@]2(C)[C@H]1CC[C@]2(O)C(=O)CO came out in this test?
FALSE

Record lookup: outcome of this test for OCCN1CCN(CCCN2c3ccccc3C=Cc3ccccc32)CC1 ?
TRUE

// return assay outcome for CN(C)C(=O)Oc1cccc([N+](C)(C)C)c1
FALSE

Which result was noted for this compound in the test: CCN1CCC[C@H]1CNC(=O)c1c(O)c(Cl)cc(Cl)c1OC
FALSE

So what was the verdict on CCCC(C(=O)OCCN(CC)CC)(c1ccccc1)c1ccccc1 in this test?
TRUE

Dear colleague, could you share the recorded outcome for OCCN1CCN(CC/C=C2/c3ccccc3Sc3ccc(C(F)(F)F)cc32)CC1 when you have a moment?
TRUE

Call for entry CC(=O)Nc1nnc(S(N)(=O)=O)s1 :
FALSE

###

assay protocol: qHTS for differential inhibitors of proliferation of Plasmodium falciparum line Dd2 (AID 1882); also: nearly all actives have a fitted effect of over 65% in size
condition details: Plasmodium falciparum Dd2 proliferation inhibition; series mostly up to 28.7 µM
Inconclusive results are not listed. Activity calls are given as the source filed them. Calls follow the shape of the dose curve; as a rule, active = well fitted inhibition curve with a large enough effect; inconclusive = small, poorly fitted or top-dose-only effect; inactive = flat fitted curve, though single readings scatter.
One label from this list, please: y for active, n for inactive

COc1cc(C(=O)OCCCN2CCCN(CCCOC(=O)c3cc(OC)c(OC)c(OC)c3)CC2)cc(OC)c1OC :: y

Hi, do you know how CC(=O)OCC1=C(C(=O)O)N2C(=O)[C@@H](NC(=O)Cc3cccs3)[C@H]2SC1 came out in this test?
n

What did this assay record as the result for CCCCNc1ccc(C(=O)OCCN(C)C)cc1 ?
n

What did the test return for CCN(CC)CC(=O)Nc1c(C)cccc1C ?
n

###

System: P93_24
assay protocol: qHTS profiling for inhibitors of Plasmodium falciparum proliferation (AID 504749); also: nearly all actives have a fitted effect of over 60% in size
condition details: P. falciparum in erythrocytes, SYBR Green DNA, 72 h; series mostly up to 28.7 µM
Records with an inconclusive call do not appear. Active and inactive are the calls of the source. Calls come from the whole dose curve; as a rule, active = well fitted inhibition curve with a large enough effect; inconclusive = small, poorly fitted or top-dose-only effect; inactive = flat fitted curve, though single readings scatter.
Respond with a class label; see True for active, False for inactive

Past entries and their recorded results:
CCn1cc(C(=O)O)c(=O)c2cc3c(cc21)OCO3 :: False
O=C(O)CN(CCN(CC(=O)O)CC(=O)O)CCN(CC(=O)O)CC(=O)O :: False
CCN(CC)CCOCCOC(=O)C1(c2ccccc2)CCCC1 :: True
COC(=O)[C@@H](N)Cc1ccc(O)c(O)c1 :: False
FC(F)(F)c1ccccc1-n1ccnc1 :: False
CC[N+](C)(C)c1cccc(O)c1 :: False

Would you mind telling me which call this test gave COCC(=O)O[C@]1(CCN(C)CCCc2nc3ccccc3[nH]2)CCc2cc(F)ccc2[C@@H]1C(C)C ?
True

Identify the outcome logged in this assay for the compound shown: CCCOc1ccccc1-c1nc2n[nH]nc2c(=O)[nH]1
False

Record request — test call for NCCCNCCSP(=O)(O)O
False

Dear all, I need the recorded test outcome for C[N+](C)(C)CCOC(=O)CCC(=O)OCC[N+](C)(C)C , thank you.
False

Per the assay record, what outcome was assigned to NC(=O)c1ncn([C@@H]2O[C@H](CO)[C@@H](O)[C@H]2O)c1O ?
False

Called result for O=c1[nH]c(=O)n([C@H]2C[C@H](O)[C@@H](CO)O2)cc1Br
False

I would be grateful if you could indicate the recorded call for CCN(Cc1ccncc1)C(=O)C(CO)c1ccccc1 (centres undefined) .
False

Which result was noted for this compound in the test: CC(C)COCC(CN(Cc1ccccc1)c1ccccc1)N1CCCC1 (centres undefined)
False

I'd appreciate the recorded outcome for CN=C(NC#N)NCCSCc1nc[nH]c1C from this test.
False

In this assay, the call recorded for NC1=NCC2c3ccccc3Cc3ccccc3N12 (centres undefined) was what?
False

State the result this test recorded for CSc1ccc(C(=O)c2[nH]c(=O)[nH]c2C)cc1 .
False

###

Test system: PC26
assay protocol: qHTS profiling for inhibitors of Plasmodium falciparum proliferation (AID 504749); also: nearly all actives have a fitted effect of over 60% in size
condition details: P. falciparum in erythrocytes, SYBR Green DNA, 72 h; series mostly up to 28.7 µM
Results filed as inconclusive are left out. Active and inactive are the calls of the source. Calls follow the shape of the dose curve; as a rule, active = well fitted inhibition curve with a large enough effect; inconclusive = small, poorly fitted or top-dose-only effect; inactive = flat fitted curve, though single readings scatter.
measure name: outcome

NC(=O)c1ncn([C@@H]2O[C@H](CO)[C@@H](O)[C@H]2O)c1O :: inactive
NC(=O)c1cn(Cc2c(F)cccc2F)nn1 :: inactive
CCCCNc1c(C(=O)OCC)c(C)nc2c1cnn2CC :: inactive
O=C(CCNNC(=O)c1ccncc1)NCc1ccccc1 :: inactive
Cc1cc(C)c(/C=C2\C(=O)Nc3ccccc32)[nH]1 :: inactive

What value of measured outcome is listed for CN(C)C(=O)Oc1cccc([N+](C)(C)C)c1 ?
inactive

Consider the compound shown here: NC/C=C/C(=O)O What is its recorded outcome?
inactive

Look up outcome for this compound: COc1ccc([C@@H]2Sc3ccccc3N(CCN(C)C)C(=O)[C@@H]2OC(C)=O)cc1
inactive

###

assay protocol: Quantitative high throughput screen for delayed death inhibitors of the malarial parasite plastid, 96 hour incubation (AID 488745); also: nearly all actives have a fitted effect of over 70% in size; also: potency is read from the fitted curve at half-maximal effect
condition details: Plasmodium falciparum growth; series mostly up to 28.7 µM
Description: NIH Molecular Libraries Probe Production Network [MLPCN] NIH Chemical Genomics Center [NCGC] Assay Provider: David Fidock and Eric Ekland, Columbia University […] We have developed a cell-based assay that measures parasite growth based on the expression of an integrated copy of a firefly luciferase reporter. […] Growth inhibition is detected by a decrease in luciferase activity […]
Results filed as inconclusive are left out. Active and inactive are the calls of the source. The call rests on the fitted dose curve; in most records, active means well fitted inhibition curve with a large enough effect; inconclusive means small, poorly fitted or top-dose-only effect, or effect the other way; inactive means no such curve, though single readings can be large or run the other way.
measure name: Potency

Recorded Potency, per entry:
COc1ccc(CN(CCN(C)C)c2ccccn2)cc1 :: inactive
CC(C)COCC(CN(Cc1ccccc1)c1ccccc1)N1CCCC1 (stereo not drawn) :: inactive
CCN(CC)CCNC(=O)c1ccc(NC(C)=O)cc1 :: inactive
CCNC(=O)N1CCN(CCCC(c2ccc(F)cc2)c2ccc(F)cc2)CC1 :: 1.65 µM (active)
Nc1ncn([C@@H]2O[C@H](CO)[C@@H](O)[C@H]2O)c(=O)n1 :: inactive

Look up Potency for this compound: CNCCC(Oc1ccccc1OC)c1ccccc1 (stereo not drawn)
inactive

What measured Potency goes with Cc1ccc(=O)n(-c2ccccc2)c1 ?
inactive

Give the measured Potency of c1cnc(N2CCN(Cc3ccc4c(c3)OCO4)CC2)nc1 .
inactive

Give the measured Potency of COc1ccc([C@@H]2Sc3ccccc3N(CCN(C)C)C(=O)[C@@H]2OC(C)=O)cc1 .
inactive

###

Tested on: HB3
assay protocol: qHTS profiling for inhibitors of Plasmodium falciparum proliferation (AID 504749); also: nearly all actives have a fitted effect of over 60% in size
condition details: P. falciparum in erythrocytes, SYBR Green DNA, 72 h; series mostly up to 28.7 µM
Inconclusive results are not listed. Calls of active or inactive are those of the source. The call rests on the fitted dose curve; in most records, active means well fitted inhibition curve with a large enough effect; inconclusive means small, poorly fitted or top-dose-only effect; inactive means flat fitted curve, though single readings scatter.
# valid calls are 1 (active), 0 (inactive); nothing else

Some solved cases for reference:
CCCN1C[C@H](CSC)C[C@@H]2c3cccc4[nH]cc(c34)C[C@H]21 :: 0
COC(=O)[C@H]1[C@H]2C[C@@H]3c4[nH]c5cc(OC)ccc5c4CCN3C[C@H]2C[C@@H](OC(=O)c2cc(OC)c(OC)c(OC)c2)[C@@H]1OC :: 1
NC(=O)c1ncn([C@@H]2O[C@H](CO)[C@@H](O)[C@H]2O)c1O :: 0
O=C1NCN(c2ccccc2)C12CCN(CCCC(c1ccc(F)cc1)c1ccc(F)cc1)CC2 :: 1
OC(CCN1CCCCC1)(c1ccccc1)C1CCCCC1 (centres undefined) :: 0
CCn1ccnc1CC1COc2ccccc2O1 (centres undefined) :: 0

Identify the outcome logged in this assay for the molecule shown: COC(=O)[C@@H](N)Cc1ccc(O)c(O)c1
0

Tell me the recorded outcome of this test for CCOC(=O)c1cnc2c(cnn2CC)c1NN=C(C)C .
0

Answer briefly: the call reported for CNCCC(Oc1ccccc1OC)c1ccccc1 (centres undefined) in this assay.
0

Called result for CCN(Cc1ccncc1)C(=O)C(CO)c1ccccc1 (centres undefined)
0

Which outcome did this test record for the molecule CC(=O)Nc1nnc(S(N)(=O)=O)s1 ?
0

Returns: the outcome recorded for CCC(=O)c1ccc2c(c1)N(CCCN(C)C)c1ccccc1S2 in this assay.
0

Just curious, what result did O=c1[nH]c(=O)n([C@H]2C[C@H](O)[C@@H](CO)O2)cc1Br get here?
0

Returns: the outcome recorded for C[N+](C)(C)CCCCCCCCCC[N+](C)(C)C in this assay.
1

Taken from PubChem BioAssay (NCATS).
